- System Under Test: human ether-à-go-go-related gene (hERG) potassium channel (human, UniProt Q12809);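 also: peak tail current of the secondary pulse compared with the same well before compound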
- Sequence (Q12809 whole entry, looked up): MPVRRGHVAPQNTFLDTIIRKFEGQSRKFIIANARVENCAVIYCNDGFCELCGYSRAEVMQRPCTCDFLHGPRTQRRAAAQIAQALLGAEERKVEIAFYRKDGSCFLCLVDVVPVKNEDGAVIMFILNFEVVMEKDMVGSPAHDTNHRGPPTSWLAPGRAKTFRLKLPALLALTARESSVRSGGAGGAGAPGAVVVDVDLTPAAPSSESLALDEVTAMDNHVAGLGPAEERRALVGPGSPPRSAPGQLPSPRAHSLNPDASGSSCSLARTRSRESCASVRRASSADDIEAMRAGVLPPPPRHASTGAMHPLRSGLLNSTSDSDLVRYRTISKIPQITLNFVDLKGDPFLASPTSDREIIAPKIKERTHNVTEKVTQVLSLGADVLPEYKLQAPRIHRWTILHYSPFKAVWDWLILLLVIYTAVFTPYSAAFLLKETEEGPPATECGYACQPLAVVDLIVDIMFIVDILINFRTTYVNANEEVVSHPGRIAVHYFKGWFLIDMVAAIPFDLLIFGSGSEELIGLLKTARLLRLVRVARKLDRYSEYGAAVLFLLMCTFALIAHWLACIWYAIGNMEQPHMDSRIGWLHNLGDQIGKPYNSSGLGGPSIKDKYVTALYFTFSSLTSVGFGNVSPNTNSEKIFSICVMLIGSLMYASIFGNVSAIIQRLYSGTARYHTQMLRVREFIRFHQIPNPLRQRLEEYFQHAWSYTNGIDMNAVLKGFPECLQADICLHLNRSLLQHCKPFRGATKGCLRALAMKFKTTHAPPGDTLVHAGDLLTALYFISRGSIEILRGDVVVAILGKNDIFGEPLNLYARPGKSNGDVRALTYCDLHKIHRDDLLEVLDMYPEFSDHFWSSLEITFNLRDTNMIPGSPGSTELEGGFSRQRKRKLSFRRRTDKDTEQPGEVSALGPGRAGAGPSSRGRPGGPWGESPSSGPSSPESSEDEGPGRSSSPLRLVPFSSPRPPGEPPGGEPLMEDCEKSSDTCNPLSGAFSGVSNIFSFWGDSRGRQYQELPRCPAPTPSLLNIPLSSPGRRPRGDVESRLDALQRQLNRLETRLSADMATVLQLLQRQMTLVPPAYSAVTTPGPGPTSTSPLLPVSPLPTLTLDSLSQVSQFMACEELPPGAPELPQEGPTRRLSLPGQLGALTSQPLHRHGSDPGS
- Measurement Notes: primary screen, population patch clamp on CHO cells stably expressing hERG; higher = less effect of the substance
Out of some 310,000 compounds screened, about 14,000 (4.5%) showed an effect of 50% or more. The effect is printed as a negative number. The list comes from a sample in which strong results are over-represented; it also holds close analogues and randomly drawn compounds.
# hERG current change (%, negative = inhibition) at 10uM annotations
Parameter Measured: hERG current change (%, negative = inhibition) at 10uM (%)

| Compound | Unit Abbreviation | Reported Result |
| --- | --- | --- |
| O=C(CCN1CCN(c2ccc(Cl)cc2)CC1)Nc1ccccc1F | % | -34 |
| O=C(CN1CCN(CCC(=O)Nc2ccccc2F)CC1)Nc1ccc(Cl)cc1 | % | -76.8 |
| CCN(CC)CC(=O)NC1CC(C)(C)Cc2c1cnn2-c1ccc(F)cc1 (centres unmarked) | % | 7.43 |
| O=C(CN1CCN(CCC(=O)Nc2ccccc2F)CC1)Nc1ccc(F)cc1 | % | -72.6 |
| O=C(CCN1CCN(c2ccc(F)cc2)CC1)Nc1ccccc1F | % | -43 |
